EC50 values for the compounds below.
System: HeLa
Experiment: Formazan production in HRV-14 virus infected cells
Format: functional, cell-based
Settings: Homo sapiens

{"Structure smiles": "CC(C)C[C@H](NC(=O)OCc1ccccc1)C(=O)N[C@@H](Cc1ccccc1)C(=O)N[C@H](/C=C/C(=O)c1ccco1)CCC(N)=O", "EC50": "2.4 µM"}
{"Structure smiles": "CC(C)C[C@H](NC(=O)OCc1ccccc1)C(=O)N[C@@H](Cc1ccccc1)C(=O)N[C@H](/C=C/C(=O)N1CCN(C)C1=O)CCC(N)=O", "EC50": "5 µM"}
{"Structure smiles": "CC(C)C[C@H](NC(=O)OCc1ccccc1)C(=O)N[C@@H](Cc1ccccc1)C(=O)N[C@H](/C=C/C(=O)C(C)(C)C)CCC(N)=O", "EC50": "1.7 µM"}
{"Structure smiles": "CCNC(=O)/C=C/[C@H](CCC(N)=O)NC(=O)[C@H](Cc1ccccc1)NC(=O)[C@H](CC(C)C)NC(=O)OCc1ccccc1", "EC50": "> 320 µM"}

Would you kindly look at the next entry?
Input: Recorded EC50 for "CC(C)C[C@H](NC(=O)OCc1ccccc1)C(=O)N[C@@H](Cc1ccccc1)C(=O)N[C@H](/C=C/C(=O)NC1CCCC1)CCC(N)=O" , please?
Output: > 100 µM

Source of measurements: ChEMBL document CHEMBL1131036
